Biological target: human TLR7 (Homo sapiens)
Sequence (Q9NYK1 27-1049): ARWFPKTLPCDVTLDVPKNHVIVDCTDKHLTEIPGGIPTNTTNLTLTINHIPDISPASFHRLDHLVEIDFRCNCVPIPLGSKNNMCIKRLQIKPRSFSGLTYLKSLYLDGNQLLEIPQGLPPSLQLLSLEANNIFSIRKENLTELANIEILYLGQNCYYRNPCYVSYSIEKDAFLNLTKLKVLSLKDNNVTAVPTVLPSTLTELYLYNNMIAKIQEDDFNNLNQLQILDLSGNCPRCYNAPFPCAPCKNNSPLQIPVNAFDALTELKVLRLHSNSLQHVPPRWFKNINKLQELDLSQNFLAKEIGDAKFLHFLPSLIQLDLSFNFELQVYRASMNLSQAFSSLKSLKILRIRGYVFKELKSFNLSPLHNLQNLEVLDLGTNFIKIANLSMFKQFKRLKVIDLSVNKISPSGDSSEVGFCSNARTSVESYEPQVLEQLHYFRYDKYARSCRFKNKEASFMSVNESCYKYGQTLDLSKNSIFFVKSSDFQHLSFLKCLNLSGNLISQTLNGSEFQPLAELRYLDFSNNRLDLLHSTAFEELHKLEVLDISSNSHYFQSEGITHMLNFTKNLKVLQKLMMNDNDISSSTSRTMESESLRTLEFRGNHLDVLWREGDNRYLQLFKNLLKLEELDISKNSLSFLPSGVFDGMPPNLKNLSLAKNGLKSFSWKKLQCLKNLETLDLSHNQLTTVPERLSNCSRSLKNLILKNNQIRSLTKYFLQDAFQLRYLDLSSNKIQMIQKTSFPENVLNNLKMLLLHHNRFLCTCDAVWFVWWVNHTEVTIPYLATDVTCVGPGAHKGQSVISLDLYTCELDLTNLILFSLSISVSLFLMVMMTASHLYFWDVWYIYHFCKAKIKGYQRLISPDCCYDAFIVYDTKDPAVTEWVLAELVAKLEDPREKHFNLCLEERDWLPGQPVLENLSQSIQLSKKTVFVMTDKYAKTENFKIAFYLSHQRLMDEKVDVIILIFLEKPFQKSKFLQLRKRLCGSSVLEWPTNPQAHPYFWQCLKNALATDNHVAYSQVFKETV
Assay: HEK293-Blue-hTLR7 cells assay (NF-κB SEAP reporter)
Conditions: 20 hrs incubation, agonism
Exercise: for every item that follows, state its recorded EC50.
Record the value in nM, omitting the unit from your answer.

Just so you know, measured EC50 for CCOCc1nc2c(N)nc(C)c(Sc3ccc(C(C)N(C)C)cc3O)c2[nH]1 (stereo not shown) came out at 22

In plain terms, `CCOCc1nc2c(N)nc(C)c(Sc3ccc(CN(C)C)c(O)c3)c2n1C` has a documented EC50 of 10

The reported value for `CCOCc1nc2c(N)nc(C)c(Sc3ccc(CN(C)C)c(C)c3O)c2[nH]1` in terms of EC50 is 31

EC50 reading for `CCOCc1nc2c(N)nc(C)c(Sc3cc(O)c(CN(C)C)cc3C)c2[nH]1` : 33

EC50 recorded for this compound, `CCOCc1nc2c(N)nc(C)c(Sc3ccc(CN(C)C)cc3)c2[nH]1` , is 27

EC50 reading for `CCOCc1nc2c(N)nc(C)c(Sc3ccc(NCCN(C)C)nc3)c2[nH]1` : 13

Value of EC50 reported for the compound `CCOCc1nc2c(N)nc(C)c(Sc3ccc(CN4CCCC4)cc3N)c2[nH]1` is 21

---

I'd be grateful if you could share measured pEC50 for these entries.
Target: human TLR7 (Homo sapiens, UniProt Q9NYK1)
Sequence (Q9NYK1 27-1049): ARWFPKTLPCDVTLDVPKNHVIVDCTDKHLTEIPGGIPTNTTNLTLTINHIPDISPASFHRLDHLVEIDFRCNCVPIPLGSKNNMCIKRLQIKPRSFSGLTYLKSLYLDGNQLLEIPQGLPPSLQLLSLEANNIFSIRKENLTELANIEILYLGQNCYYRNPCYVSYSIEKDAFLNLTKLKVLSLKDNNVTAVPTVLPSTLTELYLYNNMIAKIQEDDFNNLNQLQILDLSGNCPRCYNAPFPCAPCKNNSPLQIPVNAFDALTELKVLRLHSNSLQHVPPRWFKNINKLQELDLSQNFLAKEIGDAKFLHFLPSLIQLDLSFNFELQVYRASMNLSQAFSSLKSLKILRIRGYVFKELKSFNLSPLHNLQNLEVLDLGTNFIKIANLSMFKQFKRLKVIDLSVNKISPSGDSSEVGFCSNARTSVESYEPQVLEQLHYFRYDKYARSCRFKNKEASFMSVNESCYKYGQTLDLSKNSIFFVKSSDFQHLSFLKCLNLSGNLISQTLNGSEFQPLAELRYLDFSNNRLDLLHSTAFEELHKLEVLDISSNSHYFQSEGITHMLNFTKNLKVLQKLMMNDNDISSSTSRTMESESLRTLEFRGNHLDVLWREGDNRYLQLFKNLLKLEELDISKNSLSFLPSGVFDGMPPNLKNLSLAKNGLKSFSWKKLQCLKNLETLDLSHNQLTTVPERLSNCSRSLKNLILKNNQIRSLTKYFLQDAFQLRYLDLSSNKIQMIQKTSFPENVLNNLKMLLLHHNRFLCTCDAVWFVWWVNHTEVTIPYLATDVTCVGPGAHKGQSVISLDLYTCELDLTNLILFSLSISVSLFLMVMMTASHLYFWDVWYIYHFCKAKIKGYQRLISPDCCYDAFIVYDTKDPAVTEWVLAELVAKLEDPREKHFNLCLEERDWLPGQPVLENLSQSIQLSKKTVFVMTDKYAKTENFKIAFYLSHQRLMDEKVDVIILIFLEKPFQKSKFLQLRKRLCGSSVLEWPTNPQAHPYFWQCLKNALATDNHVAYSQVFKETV
Assay: HEK293-Blue-hTLR7 cells assay (NF-κB SEAP reporter)
Conditions: 20 hrs incubation, agonism
pEC50 (log units): -log10 of the concentration in mol/L.

Reported pEC50 ( CCOCc1nc2c(N)nc(C)c(Sc3ccc(CN4CCN(C)CC4)cc3N)c2[nH]1 [Example 27] ) = 7.41

// recorded pEC50 for CCOCc1nc2c(N)nc(C)c(Sc3ccc(CN(C)C)cc3O)c2[nH]1 [Example 8] : 7.57

Memo: CCOCc1nc2c(N)nc(C)c(Sc3ccc(CN(C)CC)cc3)c2[nH]1 [Example 6] , reported pEC50: 7.82

For this molecule ( CCOCc1nc2c(N)nc(C)c(Sc3ccc(CN4CCCC4)cc3O)c2[nH]1 [Example 22] ), measured pEC50 is 7.55

The reported value for CCOCc1nc2c(N)nc(C)c([Se]c3ccc(CN(C)C)cc3)c2n1CC(C)(C)O [Example 3] in terms of pEC50 is 7.55

Lab note: CCOCc1nc2c(N)nc(C)c(Sc3ccc(CN(C)C)cc3N)c2[nH]1 [Example 20] gave pEC50 of 7.66

Looking up CCCCc1nc2c(N)nc(C)c(SCCc3ccc(CN(C)C)cc3)c2[nH]1 [Example 15] , I found its pEC50 recorded as 8.22

pEC50 recorded for this molecule, CCCCc1nc2c(N)nnc(N(C)Cc3ccc(CN(C)C)cc3)c2n1C [SAN-43, reference compound] , is 6.51

Lookup result for CCOCc1nc2c(N)nc(C)c(Sc3ccc(CN(CC)CC)cc3O)c2[nH]1 [Example 17] ; measured pEC50: 7.62

Summary for this molecule, CCCCc1nc2c(N)nc(C)c(Sc3ccc(CN(C)C)cc3)c2n1CC(C)(C)O [Example 2] : pEC50 is 7.46

So for CCOCc1nc2c(N)nc(C)c(SCCc3ccc(CN(C)C)c(O)c3)c2[nH]1 [Example 13] , the logged pEC50 turned out to be 7.92

Lab note: CCOCc1nc2c(N)nc(C)c(SCCc3ccc(CN(C)C)cc3)c2[nH]1 [Example 10] gave pEC50 of 8.10

Quick note, pEC50 for CCOCc1nc2c(N)nc(C)c(Sc3ccc(CN(C)C)c(O)c3)c2[nH]1 [Example 11] landed at 7.74

Sample CCCCc1nc2c(N)nc(C)c(Sc3ccc(CN(C)C)cc3O)c2[nH]1 [Example 21] ; pEC50 observed: 7.85

Sure, the documented pEC50 for CCCN(CC)Cc1ccc(Sc2c(C)nc(N)c3nc(COCC)[nH]c23)cc1 [Example 5] is 7.74

Sure, the documented pEC50 for CCOCc1nc2c(N)nc(C)c(Sc3ccc(CN(C)C)c(OC)c3)c2[nH]1 [Example 9] is 7.52

In plain terms, CCOCc1nc2c(N)nc(C)c(Sc3ccc(CN(C)C)c4cn[nH]c34)c2[nH]1 [Example 19] has a documented pEC50 of 7.32

Just so you know, measured pEC50 for CCOCc1nc2c(N)nc(C)c(Sc3ccc(CCN(C)C)cc3)c2[nH]1 [Example 31] came out at 7.74
